Data provenance is a melting point compilation (Tetko et al.; mined from patent text by program, amines drawn as free bases though some values may be those of a salt).

# melting point values compiled below

Some entries whose results are on file:
// query Let me know recorded melting point for Cc1cccc2c1nc(COc1ccc(Cl)cc1)n2CCC(C)CC1NCCc2ccccc21 (racemic) , thanks.
// result 114 to 116 °C

// query Let me know recorded melting point for COCCN1CCc2cc(Nc3ncc(Cl)c(NC4(C(=O)NCC#N)CC4)n3)c(OC)cc2CC1 , thanks.
// result 187 to 189 °C

// query Let me know recorded melting point for CC#CCOc1nsc(-c2cccc(F)c2)n1 , thanks.
// result 68.7 °C

// query Let me know recorded melting point for CCc1cc(N)c(N)cc1CC , thanks.
// result 114 to 116 °C

// query Let me know recorded melting point for NCCOc1cccc2c1ccn2S(=O)(=O)c1ccccc1 , thanks.
// result 71 to 73 °C

// query Let me know recorded melting point for O=C(O)CNc1ccc(Cl)c(Cl)c1 , thanks.
// result 128 to 130 °C

// query Let me know recorded melting point for CC1CC(=O)NN=C1c1ccc2c(c1)N=CS2=O (stereo not drawn) , thanks.
// result 317 to 319 °C

// query Let me know recorded melting point for CC(O)C(CCCc1ccccc1)n1ncc2c(=O)[nH]c(Cc3ccc(Cl)c(Cl)c3)nc21 (stereo not drawn) , thanks.
// result 161 °C

// query Let me know recorded melting point for Cc1cc(=O)n2cccc(OCc3ccc(Cl)cc3Br)c2n1 , thanks.
// result 182 to 184 °C

// query Let me know recorded melting point for COC(=O)COc1ccc(N)cc1 , thanks.
// result 65 to 66.8 °C

---
// query Let me know recorded melting point for c1ccc2c(c1)CCCC2N1CCCNCC1 (stereo not drawn) , thanks.
// result 107 to 109 °C

// query Let me know recorded melting point for CC(C)n1nc(CO)cc1OCc1ccc2ccccc2n1 , thanks.
// result 118 to 119 °C

// query Let me know recorded melting point for COc1ccc(C2CNCc3cc(N)ccc32)cc1OC (stereo not drawn) , thanks.
// result 157 to 159 °C

// query Let me know recorded melting point for COC(=O)c1ccccc1C1(c2ccccc2)OCC(CCl)O1 (stereo not drawn) , thanks.
// result 90 to 91 °C

// query Let me know recorded melting point for O=C(O)C(O)Cc1ccc(OCCN2CCSc3ccccc32)cc1 (stereo not drawn) , thanks.
// result 74 to 76 °C

// query Let me know recorded melting point for CC(C)CCn1cc([N+](=O)[O-])cc1C(=O)O , thanks.
// result 154 to 157 °C

// query Let me know recorded melting point for Nc1nc(-c2ccc(F)cc2)c(CC(=O)O)s1 , thanks.
// result 267 to 268 °C

====

# melting point values compiled below

// query Let me know recorded melting point for COc1ccc2c(c1)c(CC(=O)O)c(C)n2C(=O)c1ccc(Cl)c(Cl)c1 , thanks.
// result 95 to 97 °C

// query Let me know recorded melting point for C#CCn1c2c(c3ccccc31)CCCC2 , thanks.
// result 74 to 76 °C

---
// query Let me know recorded melting point for Cc1ccc(S(=O)(=O)CCOc2ccccc2OCCS(=O)(=O)c2ccc(C)cc2)cc1 , thanks.
// result 95 to 96 °C

// query Let me know recorded melting point for COc1ccnc(CS(=O)c2nc3cc(Cl)c(Cl)cc3[nH]2)c1C (stereo not given) , thanks.
// result 173 °C

// query Let me know recorded melting point for CCc1ccc(Oc2cnc(S)[nH]c2=O)cc1 , thanks.
// result > 220 °C

// query Let me know recorded melting point for O=Cc1ccccc1NC1CCN(Cc2ccccc2)CC1 , thanks.
// result 87 to 90 °C

// query Let me know recorded melting point for CN(C)CCCOc1ccc(C=CC(=O)N2CCc3c([nH]c4ccccc34)C2c2ccc3c(c2)CCO3)cc1 (stereo not given) , thanks.
// result 186 °C
